condition description: 318.15 K; 100 kPa; Liquid; Capillary tube (Ostwald / Ubbelohde) method
endpoint label: viscosity (mPa·s)
Expressed in mPa·s, but write only the number.

CC[S+](CC)CC.O=S(=O)([N-]S(=O)(=O)C(F)(F)F)C(F)(F)F [triethylsulfonium bis((trifluoromethyl)sulfonyl)imide]    16.53
CCCO    1.211
CCCC[N+]1(C)CCCC1.O=S(=O)([N-]S(=O)(=O)C(F)(F)F)C(F)(F)F    34.3
O=S(=O)([N-]S(=O)(=O)C(F)(F)F)C(F)(F)F.On1cc[n+](O)c1 [1,3-dihydroxyimidazolium bis(trifluoromethylsulfonyl)imide]    59.8

Now examine the next entry.
Q: May I ask what viscosity has been recorded for `C=CCn1cc[n+](C)c1.O=S(=O)([N-]S(=O)(=O)C(F)(F)F)C(F)(F)F` ?
Result: 17.51
